Below, each of the sequences is paired with its reported SH2 binding enrichment value.
molecular target: c-Src SH2; test: SH2 binding enrichment of the phosphorylated peptide, bacterial display (enrichment ratio); higher = better substrate or ligand; peptides without Tyr show the background;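 note: peptide library displayed on the E. coli surface as eCPX fusions, selected cells deep-sequenced, score is each peptide's frequency after selection divided by its frequency in the input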
Form rule: numeric answer, no unit written next to it.

Reference set (5 entries):
- TSFQMYDKGLV [IARS2_Y231_F227S_YF]: 0.315
- SSMIDYNLLEK [MYOC_Y479_P481L]: 0.723
- LGQRIYQYIQS [DYRK1B_Y271]: 4.11
- FSIAQYCCRMG [LRRK2_Y2023_G2019S_YF]: 0.981
- IGEVVYQWAVM [GRIN2A_Y502_R504W]: 0.532

# next sequence below
Data request: Which SH2 binding enrichment is reported for this sequence? DTCPPYVLSQV [GJB4_Y237_G242V]
Data returned: 0.624
